molecular target: Drosophila OR10a (Drosophila melanogaster, UniProt Q9VYZ1); construct: expressed in transfected cells; experiment: Calcium ion fluorescence (GCaMP6) assay, OR10a stable HEK293 cell line; format: cell-based; details: ligand concentration 10 (unit not given); threshold 0.05, below shown as 0
Sequence (Q9VYZ1 whole entry, one chain of several): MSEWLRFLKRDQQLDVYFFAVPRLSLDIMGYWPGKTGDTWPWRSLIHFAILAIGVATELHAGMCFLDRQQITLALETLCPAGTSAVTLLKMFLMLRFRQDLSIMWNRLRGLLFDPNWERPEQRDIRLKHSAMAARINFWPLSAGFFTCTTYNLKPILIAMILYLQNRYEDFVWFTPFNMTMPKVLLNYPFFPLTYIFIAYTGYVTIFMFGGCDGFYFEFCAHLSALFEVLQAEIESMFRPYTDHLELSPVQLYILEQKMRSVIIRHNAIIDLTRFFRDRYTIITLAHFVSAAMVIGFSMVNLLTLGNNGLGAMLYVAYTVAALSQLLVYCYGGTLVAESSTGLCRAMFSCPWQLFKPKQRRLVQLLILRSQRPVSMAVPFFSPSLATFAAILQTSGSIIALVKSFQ
PARAMETER: DF norm AVERAGE OR10a
Could you respond with only the numeric value?

| COMPOUND | VAL |
| --- | --- |
| CCCCOC(C)=O [butyl acetate] | 0 |
| COC(=O)c1ccccc1 [methyl benzoate] | 0.6425 |
| C=CC(C)(O)CCC=C(C)C (centres unmarked) | 0.06934 |

// DF norm AVERAGE OR10a lookup, compound = "OCCc1ccccc1" , result: 0.05732

// DF norm AVERAGE OR10a lookup, compound = "Cc1ccc(C)cc1" , result: 0

###

target: Drosophila OR13a (Drosophila melanogaster); construct: expressed in transfected cells; assay: Calcium ion fluorescence (GCaMP6) assay, OR13a stable HEK293 cell line; format: cell-based; settings: 10 μM VOC; 50 μM VUAA1 = 1; responses not exceeding 0.05 considered 0
PARAMETER: OR13a Average response (VUAA1-normalized)
Could you respond with only the numeric value?

Past entries and their recorded results:
| MOLECULE | VAL |
| --- | --- |
| C=C1[C@H]2CC[C@@H]3[C@H]2C(C)(C)CCC[C@]13C [(+)-longifolene] | 0.037 |
| CC/C=C\CCO [Z3-hexenol] | 0.06 |
| C=C(C)[C@H]1CC=C(C)CC1 [(R)-(+)-limonene] | 0.0429 |

// OR13a Average response (VUAA1-normalized) lookup, molecule = C=C(C)[C@H]1CC=C(C)CC1 [limonene] , result: 0.00

###

target: Drosophila OR98a (Drosophila melanogaster, UniProt Q9VAZ3); construct: expressed in transfected cells; experiment: Calcium ion fluorescence (GCaMP6) assay, OR98a stable HEK293 cell line; type: cell-based; settings: HEK293, read-out: Average response;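 also: ligand concentrations in µM final VOC concentration in well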
Sequence (Q9VAZ3 whole entry, one chain of several): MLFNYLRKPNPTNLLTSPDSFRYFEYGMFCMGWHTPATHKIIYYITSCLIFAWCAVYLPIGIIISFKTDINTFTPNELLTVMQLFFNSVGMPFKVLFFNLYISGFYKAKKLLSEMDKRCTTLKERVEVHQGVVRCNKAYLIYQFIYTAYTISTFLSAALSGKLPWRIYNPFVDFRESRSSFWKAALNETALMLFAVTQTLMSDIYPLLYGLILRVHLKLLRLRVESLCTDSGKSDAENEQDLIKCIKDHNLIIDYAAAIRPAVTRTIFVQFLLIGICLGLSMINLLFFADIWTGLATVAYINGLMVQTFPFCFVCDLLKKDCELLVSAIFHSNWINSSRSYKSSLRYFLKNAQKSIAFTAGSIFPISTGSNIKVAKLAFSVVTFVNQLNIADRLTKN
Mark condition met for reported activation at 1 µM of 3% or greater; mark condition not met for anything smaller.

Below, 5 molecules whose answers are already recorded.
| MOLECULE | QUALITATIVE_LABEL |
| --- | --- |
| CCCCOC(C)=O [butyl acetate] | condition met |
| CCCCCC(C)=O | condition met |
| COC(=O)c1ccccc1 [methyl benzoate] | condition met |
| CC1=CCC2C(C1)C2(C)C (stereo not drawn) | condition not met |
| Cc1ccc(O)cc1 | condition not met |

Next item in the queue.
QUERY: Decide: is the reported value of activation at 1 µM for "OCCc1ccccc1" equal to or greater than 3%?
RESULT: condition met

###

Average response reference
biological target: Drosophila OR71a (Drosophila melanogaster, UniProt Q9VUK5); construct: expressed in transfected cells; assay: Calcium ion fluorescence (GCaMP6) assay, OR71a stable HEK293 cell line; type: cell-based; conditions: OR71a cell line; cc. 100 µM; VUAA1-normalized response, mean of biological replicates
Sequence (Q9VUK5 whole entry, one chain of several, the tested form may be a part): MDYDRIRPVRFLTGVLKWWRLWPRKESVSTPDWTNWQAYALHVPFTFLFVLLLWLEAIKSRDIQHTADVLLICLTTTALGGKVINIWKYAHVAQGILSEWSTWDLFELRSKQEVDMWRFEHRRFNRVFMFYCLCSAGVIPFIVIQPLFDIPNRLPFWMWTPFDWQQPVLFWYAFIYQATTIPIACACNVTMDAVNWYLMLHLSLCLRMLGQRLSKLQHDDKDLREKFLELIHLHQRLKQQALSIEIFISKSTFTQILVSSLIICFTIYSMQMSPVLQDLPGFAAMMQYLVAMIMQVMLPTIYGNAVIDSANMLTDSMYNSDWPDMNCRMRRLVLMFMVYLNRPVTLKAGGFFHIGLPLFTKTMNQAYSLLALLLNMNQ
Could you respond with only the numeric value?

Past entries and their recorded results:
| MOLECULE | Average response |
| --- | --- |
| CCCCC(C)O (stereo not shown) | 0.0351 |
| CC1=CCC[C@@]2(C)[C@@H]3CC[C@]12CC3(C)C [(−)-α-neoclovene] | 0.0221 |
| C=Cc1ccccc1 | 0.00724 |

// Average response lookup, molecule = COC(=O)c1ccccc1 [methyl benzoate] , result: 0.0121

###

Molecular target: Drosophila OR47a (Drosophila melanogaster)
Construct: expressed in transfected cells
Sequence (P81921 1-385): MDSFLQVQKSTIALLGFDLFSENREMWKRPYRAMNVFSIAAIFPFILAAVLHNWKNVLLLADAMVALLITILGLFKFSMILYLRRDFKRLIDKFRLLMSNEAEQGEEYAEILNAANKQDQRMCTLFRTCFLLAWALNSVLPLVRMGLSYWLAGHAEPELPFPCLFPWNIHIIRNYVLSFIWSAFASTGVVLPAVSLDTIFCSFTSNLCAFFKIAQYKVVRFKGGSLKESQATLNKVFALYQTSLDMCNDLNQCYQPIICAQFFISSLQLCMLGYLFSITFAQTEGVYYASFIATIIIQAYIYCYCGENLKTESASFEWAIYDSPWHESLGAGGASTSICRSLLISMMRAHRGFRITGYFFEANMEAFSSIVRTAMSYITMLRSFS
Sequence (Q9VNB5 1-486 partner): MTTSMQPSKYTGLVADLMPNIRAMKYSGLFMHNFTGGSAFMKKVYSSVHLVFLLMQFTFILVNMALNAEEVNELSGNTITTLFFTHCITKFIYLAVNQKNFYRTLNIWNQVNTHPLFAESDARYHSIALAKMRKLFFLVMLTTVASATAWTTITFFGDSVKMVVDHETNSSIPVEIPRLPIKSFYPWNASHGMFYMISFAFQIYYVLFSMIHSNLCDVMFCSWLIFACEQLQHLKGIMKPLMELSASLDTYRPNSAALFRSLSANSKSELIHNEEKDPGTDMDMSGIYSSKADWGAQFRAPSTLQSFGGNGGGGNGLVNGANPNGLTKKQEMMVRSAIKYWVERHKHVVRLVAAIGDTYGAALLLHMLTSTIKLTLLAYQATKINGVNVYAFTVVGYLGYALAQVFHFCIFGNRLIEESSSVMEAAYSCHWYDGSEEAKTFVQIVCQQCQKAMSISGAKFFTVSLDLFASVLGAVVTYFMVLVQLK
Experiment: Calcium ion fluorescence (GCaMP6) assay, OR47a stable HEK293 cell line
Format: cell-based
Conditions: OR47a cell line, VOC concentration 10 μM
PARAMETER: OR47a response (VUAA1-normalized) at 10 μM
Could you respond with only the numeric value?

Past entries and their recorded results:
| COMPOUND | VAL |
| --- | --- |
| CCCOC(C)=O [propyl acetate] | 0.09 |
| CC1=CCC23CC1C(C)(C)C2CCC3C (stereo not shown) | 0.00 |
| CC/C=C\CCOC(C)=O [Z-3-hexenyl acetate] | 0.67 |
| COC(=O)c1ccccc1O [methyl salicylate] | 0.00 |

// OR47a response (VUAA1-normalized) at 10 μM lookup, compound = COC(=O)c1ccccc1 [methyl benzoate] , result: 0.00

// OR47a response (VUAA1-normalized) at 10 μM lookup, compound = "C=Cc1ccccc1" , result: 0.00

###

target: Drosophila OR13a (Drosophila melanogaster, UniProt Q9VXL0); construct: expressed in transfected cells; experiment: Calcium ion fluorescence (GCaMP6) assay, OR13a stable HEK293 cell line; assay type: cell-based; details: HEK293, read-out: OR13a Average response (VUAA1-normalized), 100 μM VOC; 50 μM VUAA1 = 1; responses not exceeding 0.05 considered 0
Sequence (Q9VXL0 whole entry, one chain of several, the tested form may be a part): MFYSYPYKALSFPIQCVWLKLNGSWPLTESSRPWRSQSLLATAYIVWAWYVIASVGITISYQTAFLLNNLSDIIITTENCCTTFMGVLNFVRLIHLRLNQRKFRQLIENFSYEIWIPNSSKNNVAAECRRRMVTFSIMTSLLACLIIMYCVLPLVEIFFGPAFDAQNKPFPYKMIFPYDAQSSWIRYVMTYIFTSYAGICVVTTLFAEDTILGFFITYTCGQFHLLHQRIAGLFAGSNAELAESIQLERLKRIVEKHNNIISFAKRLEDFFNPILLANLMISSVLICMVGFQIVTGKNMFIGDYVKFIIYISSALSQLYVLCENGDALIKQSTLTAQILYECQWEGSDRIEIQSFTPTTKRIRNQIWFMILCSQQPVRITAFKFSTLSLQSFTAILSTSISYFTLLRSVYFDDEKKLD
activation at 100 µM reference

Past entries and their recorded results:
| MOLECULE | ASSAYED_TARGET | activation at 100 µM |
| --- | --- | --- |
| CC1=CCC2CC1C2(C)C (stereo not drawn) | Drosophila OR13a (Drosophila melanogaster, UniProt Q9VXL0) | 1.73% |
| Cc1cccc(C)c1 | Drosophila OR13a (Drosophila melanogaster, UniProt Q9VXL0) | 4% |
| CC(=O)OCC(C)C [isobutyl acetate] | Drosophila OR13a (Drosophila melanogaster, UniProt Q9VXL0) | 3.7% |
| CC1=CCC23CC1C(C)(C)C2CCC3C (stereo not drawn) | Drosophila OR13a (Drosophila melanogaster, UniProt Q9VXL0) | 0% |
| CCCOC(C)=O [propyl acetate] | Drosophila OR13a (Drosophila melanogaster, UniProt Q9VXL0) | 0% |
| Cc1ccccc1 | Drosophila OR13a (Drosophila melanogaster, UniProt Q9VXL0) | 0% |
| CC(=O)c1ccccc1 | Drosophila OR13a (Drosophila melanogaster, UniProt Q9VXL0) | 0% |
| CCCCCCCO | Drosophila OR13a (Drosophila melanogaster, UniProt Q9VXL0) | 22% |

Okay, now this molecule:
// activation at 100 µM lookup, molecule = "CCCCCC(=O)CC" , result: 2.55%

###

target: Drosophila OR85b (Drosophila melanogaster); construct: expressed in transfected cells; experiment: Calcium ion fluorescence (GCaMP6) assay, OR85b stable HEK293 cell line; type: cell-based; conditions: HEK293, read-out: OR85b response (VUAA1-normalized response)
Sequence (Q9VHQ7 whole entry, one chain of several, the tested form may be a part): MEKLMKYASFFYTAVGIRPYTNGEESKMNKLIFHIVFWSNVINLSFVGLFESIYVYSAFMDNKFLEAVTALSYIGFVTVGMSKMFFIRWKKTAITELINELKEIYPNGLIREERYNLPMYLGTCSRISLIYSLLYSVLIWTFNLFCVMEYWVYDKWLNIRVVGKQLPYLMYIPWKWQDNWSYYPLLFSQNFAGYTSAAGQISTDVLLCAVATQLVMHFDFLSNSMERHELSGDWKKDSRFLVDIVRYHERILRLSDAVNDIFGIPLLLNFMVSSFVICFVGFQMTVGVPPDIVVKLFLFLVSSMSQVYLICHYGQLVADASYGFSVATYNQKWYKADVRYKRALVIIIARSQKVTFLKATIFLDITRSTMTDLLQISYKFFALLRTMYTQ
activation at 100 µM reference
The reply should be a number in %, with the unit left off.

Past entries and their recorded results:
| COMPOUND | activation at 100 µM, % |
| --- | --- |
| C=C1CC/C=C(\C)CC[C@@H]2[C@@H]1CC2(C)C [(-)-trans-caryophyllene] | 0 |
| CCCCCO [1-pentanol] | 0 |
| CCCCCCCCCC=O [decanal] | 0 |
| C=CC(O)C/C=C\CC (stereo not drawn) [(5Z)-octa-1,5-dien-3-ol] | 0 |
| CCCC(=O)OCC [ethyl butyrate] | 0 |
| C=CCc1ccc(O)c(OC)c1 [eugenol] | 9 |
| CCCC(O)CC (stereo not drawn) [3-hexanol] | 0 |
| C=C1CCC2CC1C2(C)C (stereo not drawn) [beta-pinene] | 9 |
| Cc1cccc(O)c1 [3-methylphenol] | 0 |
| CCc1ccccc1 [ethylbenzene] | 0 |

Okay, now this compound:
// activation at 100 µM lookup, compound = Cc1ccc(C)c(C)c1 [1,2,4-trimethylbenzene] , result: 12
